Hello, the source for this data is paper PMC7585440, in case you need it.

Molecular target: T1, human LRP6 E1 with a C-terminal 10× His tag, labeled with the dye NT-647 (human, dye NT-647 (Monolith NT Protein Labeling kit))
T1 chain: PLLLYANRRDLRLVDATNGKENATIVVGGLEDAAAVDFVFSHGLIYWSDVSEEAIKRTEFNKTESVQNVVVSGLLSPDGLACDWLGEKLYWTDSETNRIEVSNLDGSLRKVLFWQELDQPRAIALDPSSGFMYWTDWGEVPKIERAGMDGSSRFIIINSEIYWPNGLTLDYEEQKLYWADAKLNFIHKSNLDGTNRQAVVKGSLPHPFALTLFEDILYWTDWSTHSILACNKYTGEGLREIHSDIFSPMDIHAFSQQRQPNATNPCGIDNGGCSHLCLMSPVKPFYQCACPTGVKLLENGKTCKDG
Assay: MST; LRP6 E1E2 or E1 labeled with NT-647 at ~5 nM, unlabeled SOST proteins or peptides titrated; 20 mM Tris-Cl pH 7.0, 200 mM NaCl, 0.5 mg/ml BSA, 0.05% Tween 20; 22 °C; Monolith NT.115 Pico
Conditions: both partners purified
Bridges are numbered along the chain shown (N, C = ends). Where no end group is shown, it is not given here.
READOUT TYPE: Kd (µM)
# number only, unit µM dropped from output

Task item: So what does the record say about Kd for CLLPNAIGRGKWGC (disulfide 1-14 (inferred), first cysteine of the printed peptide, for the ring-closing disulfide; last two residues of the printed peptide, with the second cysteine of the disulfide; source: synthetic peptide (Peptron)) [disulfide-bonded, circularized SOST loop 2 peptide (CLLPNAIGRGKWGC)] ?
Reply: 5.2
